Target: reverse transcriptase (Human immunodeficiency virus type 1 group M subtype B)
Construct: negative control (mixture without reverse transcriptase); purchased Roche Diagnostics GmbH, Mannheim, Germany
Assay: Biochemical reverse transcriptase assay (Reverse Transcriptase Assay, colorimetric, Roche)
Conditions: colorimetric RT assay, final DMSO 1%; read-out: IC50 (nM) RT assay
Endpoint label: IC50 (nM)
Give bare numbers, in nM.

{"Compound": "O=C1CN(C(=O)c2nc(-c3ccc(F)c(Cl)c3)c(-c3cccc(Cl)c3)s2)CN1 [Example 2]", "Measured target": "reverse transcriptase (Human immunodeficiency virus type 1 group M subtype B)", "Unit of measure": "nM", "IC50": 17}
{"Compound": "O=C1CN(C(=O)c2nc(-c3ccc(F)c(Cl)c3)c(-c3cc(F)cc(Cl)c3)s2)CN1 [Example 1]", "Measured target": "reverse transcriptase (Human immunodeficiency virus type 1 group M subtype B)", "Unit of measure": "nM", "IC50": 61}
{"Compound": "O=C1CN(C(=O)c2nc(-c3cccc(Cl)c3)c(-c3cccc(Cl)c3)s2)CN1 [Example 20]", "Measured target": "reverse transcriptase (Human immunodeficiency virus type 1 group M subtype B)", "Unit of measure": "nM", "IC50": 47}

Okay, next one:
Ask: Would you kindly share the measured IC50 for O=C1CN(C(=O)c2nc(-c3cccc(Cl)c3)c(-c3cc(F)cc(Cl)c3)s2)CN1 [Example 3] ?
Reply: 20
